# Test system: E. coli ATCC 25922
# assay.info: MIC assay, E. coli
# Type: cell-based
# test.conditions: Escherichia coli, ATCC25922; read-out: MIC E. coli ATCC 25922
Would you mind telling me the reported MIC of each entry?

Recorded MIC for O=C(NCCCNCc1ccc(Oc2ccccc2)cc1)Nc1ccc(C(F)(F)F)cc1 [12h] , please?
6 to 12 µM

Recorded MIC for O=C(NCCCNCc1ccc(-c2ccccc2)cc1)Nc1ccc(C(F)(F)F)cc1 [12e] , please?
6 to 12 µM

Recorded MIC for CC(=O)NC[C@H]1CN(c2ccc(N3CCOCC3)c(F)c2)C(=O)O1 [Linezolide, reference compound] , please?
> 100 µM

Recorded MIC for CC(C)(C)c1ccc(CNCCCNC(=O)Nc2ccc(C(F)(F)F)cc2)cc1 [12i] , please?
6 to 12 µM

Recorded MIC for CCOc1c(Br)cc(Br)cc1CNCCCNC(=O)Nc1ccc(C(F)(F)F)cc1 [12s] , please?
12 to 25 µM

Recorded MIC for CN(CCCNC(=O)Nc1ccc(C(F)(F)F)cc1)CCCOc1ccc(Br)cc1Br [14b] , please?
12 to 25 µM

----------
# System: E. faecalis ATCC 29212
# assay.info: MIC assay, E. faecalis
# Type: cell-based
# test.conditions: Enterococcus faecalis, ATCC29212; read-out: MIC E. faecalis ATCC 29212
Would you mind telling me the reported MIC of each entry?

Query MIC on E. faecalis ATCC 29212 for O=C(NCCCNCc1ccc(Oc2ccccc2)cc1)Nc1ccc(C(F)(F)F)cc1 [12h]
3 to 6 µM

Query MIC on E. faecalis ATCC 29212 for O=C(NCCCNCc1ccc(-c2ccccc2)cc1)Nc1ccc(C(F)(F)F)cc1 [12e]
> 100 µM

Query MIC on E. faecalis ATCC 29212 for CN(CCCNC(=O)Nc1ccc(C(F)(F)F)cc1)CCCOc1ccc(Br)cc1Br [14b]
3 to 6 µM

Query MIC on E. faecalis ATCC 29212 for CC(C)(C)c1ccc(CNCCCNC(=O)Nc2ccc(C(F)(F)F)cc2)cc1 [12i]
6 to 12 µM

Query MIC on E. faecalis ATCC 29212 for CCOc1c(Br)cc(Br)cc1CNCCCNC(=O)Nc1ccc(C(F)(F)F)cc1 [12s]
6 to 12 µM

Query MIC on E. faecalis ATCC 29212 for CC(=O)NC[C@H]1CN(c2ccc(N3CCOCC3)c(F)c2)C(=O)O1 [Linezolide, reference compound]
3 to 6 µM

----------
Would you mind telling me the reported logP of each entry?
# assay.info: log P
# Format: physicochemical
Just the number, please, no unit attached.

Recorded logP for O=C(NCCCNCc1ccc(-c2ccccc2)cc1)Nc1ccc(C(F)(F)F)cc1 [12e] , please?
4.91

Recorded logP for CC(C)(C)c1ccc(CNCCCNC(=O)Nc2ccc(C(F)(F)F)cc2)cc1 [12i] , please?
4.94

Recorded logP for CCOc1c(Br)cc(Br)cc1CNCCCNC(=O)Nc1ccc(C(F)(F)F)cc1 [12s] , please?
5.1

Recorded logP for O=C(NCCCNCc1cc(Br)cc(Br)c1)Nc1ccc(Cl)c(Cl)c1 , please?
4.89
